Test: qHTS Assay for Spectroscopic Profiling in 4-MU Spectral Region
Conditions: compound autofluorescence, 340/450 nm, 4-MU equivalents
In all, about 59,000 compounds went through this assay and about 6,200 (11%) were called active. Another 9% or so got no clear call; they are omitted. Cut-off read from the data, not from the text of the source: active = max dye-equivalent concentration above about 10 nM; inconclusive = mostly about 1.1 nM to 9.6 nM; inactive = weaker than that. This is one part of a sample in which actives are shown more often than they occur.
Possible outcomes: class 1 (active), class 0 (inactive)

> print(dat)
                                   molecule  category
1  COc1ccc(CN2CC(C(=O)NCCN3CCN(c4ccccc4F)CC3)CC2=O)cc1 (centres undefined)   class 0
2  O=C1CCC(C(=O)Nc2ccc(OC(F)F)cc2)N1 (centres undefined)   class 1
3     O=C(NCCc1ccc2c(c1)OCCO2)c1cc2ccccc2o1   class 0
4  Cc1ccc(N(C(=O)CC2NC(=O)NC2=O)C2(C(=O)NC3CCCC3)CCCCC2)cc1 (centres undefined)   class 0
5            COc1c(C(=O)N2CCCC2)ccc2ccccc12   class 0
6  COc1ccc(CCn2c(NCCCN3CCOCC3)nc3c2c(=O)[nH]c(=O)n3C)cc1   class 0
7              O=C(Nc1cccc(Cl)c1)OCc1ccccn1   class 0
8   CCN1CCc2c(C#N)c(NCc3ccccc3)nc(NCCO)c2C1   class 1
9  O=C(Nc1ccc(S(=O)(=O)N2CCCCC2)cc1)c1cnccn1   class 0
